Values were extracted from patent US20070293484A1.

# Experimental target: PDGFR (Homo sapiens, UniProt P09619)
# Construct: SUGEN, Inc; host or cells: NIH 3T3 cell lysate; receptor captured on plate with monoclonal anti-PDGFR antibody 28D4C10
# Sequence (P09619 33-1106, species assumed): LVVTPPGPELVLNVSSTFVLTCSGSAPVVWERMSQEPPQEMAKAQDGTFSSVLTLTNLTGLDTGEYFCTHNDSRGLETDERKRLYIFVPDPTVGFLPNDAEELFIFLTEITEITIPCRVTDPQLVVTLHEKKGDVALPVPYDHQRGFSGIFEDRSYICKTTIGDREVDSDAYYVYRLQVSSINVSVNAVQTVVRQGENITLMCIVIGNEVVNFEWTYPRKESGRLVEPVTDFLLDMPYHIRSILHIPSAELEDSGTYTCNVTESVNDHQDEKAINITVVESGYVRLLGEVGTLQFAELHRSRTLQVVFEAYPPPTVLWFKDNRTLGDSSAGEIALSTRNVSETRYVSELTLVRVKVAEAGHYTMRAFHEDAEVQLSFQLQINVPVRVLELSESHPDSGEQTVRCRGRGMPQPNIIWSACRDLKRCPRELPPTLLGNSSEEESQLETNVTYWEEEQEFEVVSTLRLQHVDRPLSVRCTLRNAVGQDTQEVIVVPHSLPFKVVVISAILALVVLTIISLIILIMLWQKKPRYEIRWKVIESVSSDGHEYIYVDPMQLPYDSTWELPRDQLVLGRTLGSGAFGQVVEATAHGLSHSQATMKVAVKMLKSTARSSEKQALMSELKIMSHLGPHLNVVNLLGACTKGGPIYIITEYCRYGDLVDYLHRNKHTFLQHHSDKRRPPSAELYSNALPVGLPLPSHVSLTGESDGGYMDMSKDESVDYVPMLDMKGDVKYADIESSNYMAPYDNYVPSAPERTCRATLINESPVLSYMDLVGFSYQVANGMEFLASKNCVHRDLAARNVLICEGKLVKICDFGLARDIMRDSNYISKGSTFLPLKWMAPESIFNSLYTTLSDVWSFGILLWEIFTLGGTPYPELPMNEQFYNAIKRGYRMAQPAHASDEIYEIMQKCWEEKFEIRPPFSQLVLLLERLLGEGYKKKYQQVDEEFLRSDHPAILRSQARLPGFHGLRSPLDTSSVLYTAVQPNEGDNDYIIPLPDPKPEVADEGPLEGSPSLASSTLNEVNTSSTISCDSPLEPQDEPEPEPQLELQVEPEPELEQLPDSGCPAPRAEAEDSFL
# Protocol notes: PDGFR bioassay (ELISA, in vitro kinase activity)
# Format: biochemical
# Study conditions: PDGFR-β expressing NIH 3T3 cell lysate; read-out: IC50 (μM) PDGF-R
Measured parameter: IC50 (µM)

For orientation, consider the following solved cases.
CC(C)Nc1cccc(Nc2ncc(-c3ccsc3)cn2)c1 [Example 37]; 0.56
O=C(Nc1cccc(Nc2ncc(-c3ccsc3)cn2)c1)N1CCC(N2CCCC2)CC1 [Example 54]; 0.18
O=C(Nc1cccc(Nc2ncc(-c3ccsc3)cn2)c1)N1CCCC1CN1CCCC1 (stereo not shown) [Example 48]; 0.21
O=C(NCCN1CCS(=O)(=O)CC1)Nc1cccc(Nc2ncc(-c3ccsc3)cn2)c1 [Example 52]; 0.36
O=C(O)c1cccc(Nc2ncc(-c3cccs3)cn2)c1 [Example 17]; 15.2
O=C(Nc1ccc(Nc2ncc(-c3ccsc3)cn2)cc1)N1CCCC1CN1CCCC1 (stereo not shown) [Example 33]; 0.66
O=C(CN1CCCC1)Nc1cccc(Nc2ncc(-c3ccsc3)cn2)c1 [Example 62]; 0.2
CCN(CC)CC(=O)Nc1ccc(Nc2ncc(-c3ccsc3)cn2)cc1 [Example 27]; 0.55

(I) Oc1ccc(Nc2ncc(-c3cccs3)cn2)cc1 [Example 15]
(II) CN1CCN(Cc2ccc(C(=O)Nc3cccc(Nc4ncc(-c5ccsc5)cn4)c3)cc2)CC1 [Example 11]
Ask: Of I and II , which shows the smaller IC50 value? Lab log: write the label of the selected item as the result.
Reply: II
(II: 0.22 µM, I: 1.7 µM)

----------
# Experimental target: PDGFR (Homo sapiens)
# Construct: SUGEN, Inc; host or cells: NIH 3T3 cell lysate; receptor captured on plate with monoclonal anti-PDGFR antibody 28D4C10
# Protocol notes: PDGFR bioassay (ELISA, in vitro kinase activity)
# Assay type: biochemical
# Study conditions: PDGFR-β expressing NIH 3T3 cell lysate; read-out: IC50 (μM) PDGF-R
Measured parameter: IC50 (µM)

Examples from the recorded data:
O=C(CN1CCCC1CN1CCCC1)Nc1ccc(Nc2ncc(-c3ccsc3)cn2)cc1 (stereo not drawn); 0.41
O=C(CNCCN1CCS(=O)(=O)CC1)Nc1cccc(Nc2ncc(-c3ccsc3)cn2)c1; 0.06
CN1CCN(CCNC(=O)Nc2cccc(Nc3ncc(-c4ccsc4)cn3)c2)CC1; 0.22
CC(=O)Nc1ccc(Nc2ncc(-c3cccs3)cn2)cc1; 0.44
CC(=O)Nc1ccc(Nc2ncc(-c3ccsc3)cn2)cc1; 0.07

(A) CC(=O)Nc1cccc(Nc2ncc(-c3ccsc3)cn2)c1
(B) CC(=O)c1ccc(-c2cnc(Nc3cccc(N)c3)nc2)s1
(C) O=C(Nc1ccc(Nc2ncc(-c3ccsc3)cn2)cc1)N1CCOCC1
Ask: # rank by IC50, ascending (min first) Put the labels in the order asked and list them.
Reply: A, C, B
(A: 0.66 µM, C: 1 µM, B: 2.4 µM)

----------
# Experimental target: GST-Flk1 (Mus musculus, UniProt P35918)
# Construct: GST-Flk1cd purified from sf9 recombinant baculovirus transformation (SUGEN, Inc.); host or cells: Sf9 insect cells (recombinant baculovirus)
# Sequence (P35918 784-1345 limits assumed): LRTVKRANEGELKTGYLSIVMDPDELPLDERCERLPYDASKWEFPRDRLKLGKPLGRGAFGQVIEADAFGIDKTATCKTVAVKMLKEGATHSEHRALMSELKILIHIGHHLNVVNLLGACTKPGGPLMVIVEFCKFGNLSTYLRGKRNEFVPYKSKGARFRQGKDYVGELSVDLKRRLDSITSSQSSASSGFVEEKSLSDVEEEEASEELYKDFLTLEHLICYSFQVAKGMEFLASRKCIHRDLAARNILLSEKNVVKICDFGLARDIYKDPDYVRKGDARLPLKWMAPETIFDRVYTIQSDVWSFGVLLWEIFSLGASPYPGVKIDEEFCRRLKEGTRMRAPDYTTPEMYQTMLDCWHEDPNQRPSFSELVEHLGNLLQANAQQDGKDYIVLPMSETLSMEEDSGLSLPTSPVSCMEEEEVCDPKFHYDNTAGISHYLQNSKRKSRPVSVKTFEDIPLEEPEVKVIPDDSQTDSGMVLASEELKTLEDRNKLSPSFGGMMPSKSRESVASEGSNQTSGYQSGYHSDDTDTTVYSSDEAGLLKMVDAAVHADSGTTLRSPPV
# Protocol notes: GST-FLK-1 bioassay (ELISA, tyrosine kinase activity on poly(glu,tyr))
# Format: biochemical
Measured parameter: IC50 (µM)

O=C(Nc1ccc(Nc2ncc(-c3ccsc3)cn2)cc1)N1CCCC1CN1CCCC1 (stereo not shown) [Example 33]; 4.55
O=C(Nc1ccc(Nc2ncc(-c3ccsc3)cn2)cc1)N1CCC(N2CCCC2)CC1 [Example 30]; 6.2
CC(=O)c1ccc(-c2cnc(Nc3cccc(N)c3)nc2)s1 [Example 19]; 8.6
CN1CCN(C(=O)Nc2ccc(Nc3ncc(-c4ccsc4)cn3)cc2)CC1 [Example 35]; 5.4
O=C(CN1CCOCC1)Nc1ccc(Nc2ncc(-c3ccsc3)cn2)cc1 [Example 26]; 5.6

(a) O=C(NCCN1CCOCC1)Nc1cccc(Nc2ncc(-c3ccsc3)cn2)c1 [Example 49]
(b) CN1CCN(Cc2ccc(C(=O)Nc3cccc(Nc4ncc(-c5ccsc5)cn4)c3)cc2)CC1 [Example 11]
Ask: Quick check, higher IC50 between a and b ? Choose, then provide that item's label.
Reply: a
(a: 1.9 µM, b: 0.73 µM)

(A) O=C(NCC(O)CN1CCOCC1)Nc1cccc(Nc2ncc(-c3ccsc3)cn2)c1 (stereo not shown) [Example 51]
(B) CCN(CC)CC(=O)Nc1ccc(Nc2ncc(-c3ccsc3)cn2)cc1 [Example 27]
(C) CCN(CC)c1cccc(Nc2ncc(-c3ccsc3)cn2)c1 [Example 38]
(D) O=C(O)c1cccc(Nc2ncc(-c3ccsc3)cn2)c1 [Example 7]
Ask: Sort the 4 compounds by IC50; largest first, smallest last. Note for the reader: the ranking is given by listing the labels in the order requested.
Reply: D, B, C, A
(D: 16.2 µM, B: 6 µM, C: 3 µM, A: 2 µM)

(I) CN1CCN(CCNC(=O)Nc2cccc(Nc3ncc(-c4ccsc4)cn3)c2)CC1 [Example 53]
(II) CCN(CC)CCNC(=O)Nc1ccc(Nc2ncc(-c3ccsc3)cn2)cc1 [Example 32]
Ask: Which is greater in IC50, the first item I or the second item II ? Indicate your choice by writing its label.
Reply: II
